// provenance: patent US12692269B2

Biological target: TEAD3 TAZ (amino acids 13-57) (Homo sapiens)
Sequence (Q99594 173-435 limits assumed): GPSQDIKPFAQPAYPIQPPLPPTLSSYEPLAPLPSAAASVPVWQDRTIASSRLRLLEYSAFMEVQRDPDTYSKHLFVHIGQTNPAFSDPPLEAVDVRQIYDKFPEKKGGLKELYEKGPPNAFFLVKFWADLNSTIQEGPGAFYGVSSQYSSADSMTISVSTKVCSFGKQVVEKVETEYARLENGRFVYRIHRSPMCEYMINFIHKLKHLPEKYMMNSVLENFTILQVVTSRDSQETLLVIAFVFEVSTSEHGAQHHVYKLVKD
Test: TEAD3-TAZ HTRF (TR-FRET) protein-protein interaction assay
Details: TEAD3-TAZ HTRF, TR-FRET 665 nm/615 nm; read-out: TEAD3 TAZ HTRF combined: EC50
Give pEC50 for every item shown.
When answering, recall that pEC50 equals minus log10 of the concentration in mol/L, and write that number alone.

Given CC(CO)c1nn2c(=O)cc(-c3ccc(C4CCCCC4)cc3)[nH]c2c1C(=O)N1CC[C@@H](C#N)C1 (single isomer, unassigned) [Final product obtained using Enantiomer A from Step 4, Example 54] , respond with its pEC50. 6.59

Input O=C(c1c(-c2ncccn2)nn2c(=O)cc(-c3ccc(C4CCCCC4)cc3)[nH]c12)N1CC(CF)C1 [Compound 15] , output reported pEC50. 7.15

For the compound Cc1nccnc1-c1nn2c(=O)cc(-c3ccc(CC4CCCC4)cc3)[nH]c2c1C(=O)N1C[C@H](CF)[C@@H]1C (single isomer, unassigned) [Isomer B, Example 42] , report pEC50. 7.05

Quick one: give measured pEC50 for CCn1cnc(-c2nn3c(=O)cc(-c4ccc(C5CCCCC5)cc4)[nH]c3c2C(=O)N2CC(CF)C2)c1 [Compound 31] 6.68

Identify measured pEC50 associated with Cc1ccnc(-c2nn3c(=O)cc(-c4ccc(C5CCCCC5)cc4)[nH]c3c2C(=O)N2CC(CF)C2)c1 [Compound 18] 7.05

Output pEC50 of Cc1cncc(-c2nn3c(=O)cc(-c4ccc(C5CCCCC5)cc4)[nH]c3c2C(=O)N2CC(CF)C2)n1 [Compound 28] 7.00

Let me know recorded pEC50 for O=C(c1c(-c2cccnc2)nn2c(=O)cc(-c3ccc(C4CCCCC4)cc3)[nH]c12)N1CC(CF)C1 [Compound 37] , thanks. 6.82

Tell us which pEC50 value is on record for Cc1nccnc1-c1nn2c(=O)cc(-c3ccc(C4CCCCC4)cc3)[nH]c2c1C(=O)N1CC(CF)C1 [Compound 27] 7.00

Read the entry O=C(c1c(-c2nccnc2C(F)(F)F)nn2c(=O)cc(-c3ccc(C4CCCCC4)cc3)[nH]c12)N1CC(CF)C1 [Compound 7] and write its reported pEC50. 6.49

Please look at this compound and report its pEC50: COc1nccnc1-c1nn2c(=O)cc(-c3ccc(C4CCCCC4)cc3)[nH]c2c1C(=O)N1CC(CF)C1 [Compound 13] 6.74

Give me measured pEC50, please, for this compound: CC(C)(C)c1ccc(COc2cc(=O)n3nc(-c4ncccn4)c(C(=O)N4CC(CF)C4)c3[nH]2)cc1 [Compound 54] 7.05

Name the recorded pEC50 of the item Cc1nccnc1-c1nn2c(=O)cc(-c3ccc(C4CCCC4)cc3)[nH]c2c1C(=O)N1C[C@H](CF)[C@@H]1C [Compound 69] in your answer. 6.92

Find the measured pEC50 of C[C@H]1[C@@H](CF)CN1C(=O)c1c(-c2cnccn2)nn2c(=O)cc(-c3ccc(C4CCCCC4)cc3)[nH]c12 (single isomer, unassigned) [Isomer A, Example 39] and report it. 6.89

Respond only with pEC50 recorded for CN(C)C(=O)c1nn2c(=O)cc(-c3ccc(C4CCCCC4)cc3)[nH]c2c1C(=O)N1CC(CF)C1 [Compound 1] 6.77

Give a short answer stating reported pEC50 for Cc1nccnc1-c1nn2c(=O)cc(-c3ccc(CC4CCCC4)cc3)[nH]c2c1C(=O)N1C[C@@H](CF)[C@H]1C (single isomer, unassigned) [Isomer A, Example 42] . 6.47

Read off the recorded pEC50 for Cc1nccnc1-c1nn2c(=O)cc(-c3ccc(-c4ccccc4)cc3)[nH]c2c1C(=O)N1CC(CF)C1 [Compound 60] 6.66

Give me measured pEC50, please, for this compound: C[C@H]1[C@@H](CF)CN1C(=O)c1c(-c2ncccn2)nn2c(=O)cc(-c3ccc(C4CCCCC4)cc3)[nH]c12 (single isomer, unassigned) [Isomer B, Example 40] 6.28

Answer with the recorded pEC50 for the compound listed here: O=C(c1c(-c2cnccn2)nn2c(=O)cc(-c3ccc(C4CCCCC4)cc3)[nH]c12)N1CC(CF)C1 [Compound 17] 7.22

Consider the compound COc1ccnc(-c2nn3c(=O)cc(-c4ccc(C5CCCCC5)cc4)[nH]c3c2C(=O)N2CC(CF)C2)n1 [Compound 14] . State its measured pEC50. 7.10

Note down pEC50 recorded for Cc1nccnc1-c1nn2c(=O)cc(-c3ccc(C(F)(F)C4CCCC4)cc3)[nH]c2c1C(=O)N1CC(CF)C1 [Compound 56] 6.96

Tell us which pEC50 value is on record for C[C@@H]1[C@H](CF)CN1C(=O)c1c(-c2cnccn2)nn2c(=O)cc(-c3ccc(C4CCCCC4)cc3)[nH]c12 (single isomer, unassigned) [Isomer B, Example 39] 5.60

In one line, give reported pEC50 of the entry CC(C)c1ccnc(-c2nn3c(=O)cc(-c4ccc(C5CCCCC5)cc4)[nH]c3c2C(=O)N2CC(CF)C2)n1 [Compound 10] . 6.85

Output pEC50 of C[C@@H]1[C@H](CF)CN1C(=O)c1c(C(=O)N(C)C)nn2c(=O)cc(-c3ccc(C4CCCCC4)cc3)[nH]c12 [Compound 6] 5.22

Tell me measured pEC50 for C[C@@H]1[C@H](CF)CN1C(=O)c1c(-c2ncccn2)nn2c(=O)cc(-c3ccc(C4CCCCC4)cc3)[nH]c12 (single isomer, unassigned) [Isomer A, Example 40] please. 6.80
